Hi there, I'd appreciate the recorded IC50 for every entry that follows.
# target_or_system: HLA-B*3501 (human)
# procedure_text: competition vs 125I-labeled standard peptide, purified HLA
Numbers only, in nM.

Before answering, review these 2 worked examples.
binder="FPLTSIISA (9-mer analog of the HER2/neu peptide starting at position 649; same label as the 10-mer in r43) [Her2/neu.649.F1, 9-mer]" property=IC50 result=21
binder="FPLTSIISAI (10-mer analog of the HER2/neu peptide starting at position 649) [Her2/neu.649.F1I10]" property=IC50 result=327

I'd like to know its IC50. The binder in question is FPKANKEIL (9-mer analog of the HER2/neu peptide starting at position 760; same label as the 8-mer in r52) [Her2/neu.760.F1, 9-mer]
4500
